FYI, the data here is from PubChem BioAssay AID330.

test system: P388 leukemia ip, CD2F1 mice, survival T/C; test: NCI In Vivo Anticancer Drug Screen. Data for tumor model P388 Leukemia (intraperitoneal) in CD2F1 (CDF1) mice; conditions: endpoint: median survival time; dose: 100.0 mg/kg/injection; schedule: Q01DX001 (ip); vehicle: saline; higher = longer survival
Toxic doses and inconclusive results are not listed.
Listed here are compounds together with their documented T/C.

{"COMPOUND": "COc1ccc2cc1Oc1ccc(cc1)C[C@H]1c3c(cc(OC)c(O)c3Oc3cc4c(cc3OC)CCN(C)[C@@H]4C2)CCN1C", "T/C": "106 % of control"}
{"COMPOUND": "CS(=O)(=O)c1nc(N)c2nnn(C3OC(CO)C(O)C3O)c2n1 (stereo not given)", "T/C": "109 % of control"}
{"COMPOUND": "CCOC(=O)N1CCC23C=C(OC)C(=O)C=C2C1CC1=C3C(=O)C(OC)=CC1=O (stereo not given)", "T/C": "101 % of control"}
{"COMPOUND": "O=C(NN1C(=O)C2=Cc3ccccc3OC2=NC1c1ccccc1O)c1ccncc1 (stereo not given)", "T/C": "96 % of control"}
{"COMPOUND": "COCON=C(C)C", "T/C": "100 % of control"}
